Biological target: FGFR1 (UniProt P11362)
Sequence (P11362 whole entry, looked up): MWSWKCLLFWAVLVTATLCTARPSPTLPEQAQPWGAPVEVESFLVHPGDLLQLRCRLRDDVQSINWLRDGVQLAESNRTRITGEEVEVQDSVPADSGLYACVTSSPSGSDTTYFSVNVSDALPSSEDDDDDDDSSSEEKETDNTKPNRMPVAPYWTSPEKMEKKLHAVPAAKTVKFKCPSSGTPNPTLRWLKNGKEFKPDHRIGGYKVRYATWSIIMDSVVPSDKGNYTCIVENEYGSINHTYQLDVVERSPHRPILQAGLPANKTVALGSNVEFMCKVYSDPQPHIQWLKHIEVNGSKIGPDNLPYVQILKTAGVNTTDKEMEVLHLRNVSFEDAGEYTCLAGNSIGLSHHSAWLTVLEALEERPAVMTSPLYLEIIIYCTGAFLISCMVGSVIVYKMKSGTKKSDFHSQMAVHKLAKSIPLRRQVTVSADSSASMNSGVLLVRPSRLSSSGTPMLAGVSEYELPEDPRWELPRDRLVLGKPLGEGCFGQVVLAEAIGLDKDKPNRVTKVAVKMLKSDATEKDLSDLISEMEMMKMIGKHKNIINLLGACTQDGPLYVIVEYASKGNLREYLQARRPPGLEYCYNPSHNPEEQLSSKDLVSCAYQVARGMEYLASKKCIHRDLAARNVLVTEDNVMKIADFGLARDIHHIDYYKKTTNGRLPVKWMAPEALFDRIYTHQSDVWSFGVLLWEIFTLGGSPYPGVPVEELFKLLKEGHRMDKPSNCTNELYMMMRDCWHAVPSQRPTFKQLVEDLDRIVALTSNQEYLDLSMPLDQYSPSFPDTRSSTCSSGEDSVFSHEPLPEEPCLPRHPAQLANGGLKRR
Assay: phosphorylation enrichment, bacterial display (enrichment ratio); higher = better substrate or ligand; peptides without Tyr show the background;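 note: 11-residue human phosphosite peptides and single-mutation variants displayed on the E. coli surface, counted by deep sequencing, each peptide's frequency after selection divided by its frequency in the unselected input library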;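 note: frequency after pTyr selection over input frequency; kinase dosed for 20-30% of maximal phosphorylation in three min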
Outcome label depends on phosphorylation enrichment relative to 0.5: at/above gives MET, below gives NOT MET.

Confirm if phosphorylation enrichment reported for the sequence RGYRQYAYDGK [HLA-A_Y140_D140Y] is 0.5 or above.
NOT MET

Confirm if phosphorylation enrichment reported for the sequence LNCIYYKDQTG [RS1_Y166_W163C] is 0.5 or above.
MET

Confirm if phosphorylation enrichment reported for the sequence SWKRRYFLLWA [APBB1IP_Y331_R335W] is 0.5 or above.
NOT MET

Confirm if phosphorylation enrichment reported for the sequence PYSSPYENSLI [EPOR_Y489_N487S] is 0.5 or above.
MET

Confirm if phosphorylation enrichment reported for the sequence RIVEIYSRRLR [GCH1_Y175_Q180R] is 0.5 or above.
NOT MET

Confirm if phosphorylation enrichment reported for the sequence ILGRTHFVNHE [NEDD4_Y627_Y627H_YF] is 0.5 or above.
NOT MET

Confirm if phosphorylation enrichment reported for the sequence VKRNRYKDILP [PTPN12_Y64_K61R] is 0.5 or above.
NOT MET

Confirm if phosphorylation enrichment reported for the sequence LERFIYNREEL [HLA-DPB1_Y59_F64L_YF] is 0.5 or above.
MET
